system: SR leukemia; assay: NCI-60 one-dose screen, 48 h (100 = growth as untreated, 0 = no growth, -100 = all killed); settings: 10 µM unless noted
About 83,000 compounds went through this panel and 20% of them were active in at least one assay; those are over-represented in the sample as a whole.
QUANTITY_MEASURED: growth (%)
Numbers only, in %.

Worked set:
CN1c2ccccc2S(=O)(=O)n2c(SCC(=O)Nc3nc4ccc(F)cc4s3)nnc21 :: 59.8
CN(C)CCn1c(=O)c2ccccc2n2nc3ccccc3c12 :: 46.8
COc1cc(C[C@H]2COc3cc(O)cc(O)c3C2=O)ccc1O :: 19
COC(=O)c1ccc2c(c1)c1c(C)c3cnccc3c(C)c1n2C :: 18.2
C/C(=C(\c1ccc(OCCN2CCCCCC2)cc1)c1ccc(OC(=O)c2ccccc2)cc1)c1ccc(Cl)cc1 :: -16.1

Provide reported growth for each item, in the same order as listed.
1. CC(O)CNC(Cc1ccccc1)c1ccc2c(c1)OCO2 (stereo not drawn)
2. Clc1ccc(-c2cc(-c3ccccc3)nc(N3CCN(CCCNc4ccnc5cc(Cl)ccc45)CC3)n2)cc1
3. Cn1c(=O)[nH]c(=O)c2nc3c(nc21)-c1ccccc1C3=O

# output
[101, 5.44, 100]

Record growth for all entries; do not skip any.
1. O=C(/C=C/c1ccccc1Cl)c1cccc(OCCCCOc2cccc(C(=O)/C=C/c3ccccc3Cl)c2)c1
2. COc1ccc(-c2cn(Cc3cc4ccccc4s3)nn2)cc1OCCN1CCCCC1
3. Cc1cc(Cl)nc(N2CCN(CCNc3ccnc4cc(Cl)ccc34)CC2)n1
4. O=C(NNc1nc2cc(F)ccc2n2c(CN3CCOCC3)ccc12)c1ccccc1
5. CN(C)CCCn1c2c(c3cnccc3c1=O)C(=O)c1ccccc1-2

# output
1. 81
2. 1.37
3. -7.81
4. 3.49
5. -8.62

* * *

Test system: HCT-15 colon
Experiment: NCI-60 one-dose screen, 48 h
Conditions: 10 µM unless noted
Experimental: Growth inhibition of the HCT-15 human tumor cell line is measured as a screen for anti-cancer activity. Cells are grown in 96 well plates and exposed to the test compound for 48 hours. Compounds are tested at a single concentration, which is 10^-5 M for most compounds. The reported endpoint is percent growth (GI% or GIPRCNT), where numbers from 0 - 100% represent growth inhibition, and numbers from -100% - 0 represent cell death. For example, a value of 40 represents 60% growth inhibition. […]
Compounds without any hit were thinned out: in the full panel of roughly 83,000, 20% have a hit. Activity calls are given as the source filed them. How the source made its calls: active means growth percent below 10; inactive means the rest.
Classes to choose from: yes (1) (active), no (0) (inactive)

Below, 3 compounds whose answers are already recorded.
Clc1ccc(-c2cc(-c3ccccc3)nc(N3CCN(CCCNc4ccnc5cc(Cl)ccc45)CC3)n2)cc1 :: yes (1)
N#Cc1c(-c2ccccc2)cc(-c2ccccc2)n(CCCCC(=O)NO)c1=O :: no (0)
O=c1cc(CNc2cc(F)cc(F)c2)c2ccc(I)cc2[nH]1 :: no (0)

Here is the next item to consider.
# input Please indicate how the test categorized `N#Cc1c(-c2ccc(Cl)cc2)nc(NN=Cc2ccc[nH]2)nc1N1CCOCC1` .
# output no (0)

* * *

Tested on: OVCAR-5 ovarian
Assay: NCI-60 one-dose screen, 48 h
Details: 10 µM unless noted
Protocol: Growth inhibition of the OVCAR-5 human tumor cell line is measured as a screen for anti-cancer activity. Cells are grown in 96 well plates and exposed to the test compound for 48 hours. Compounds are tested at a single concentration, which is 10^-5 M for most compounds. The reported endpoint is percent growth (GI% or GIPRCNT), where numbers from 0 - 100% represent growth inhibition, and numbers from -100% - 0 represent cell death. For example, a value of 40 represents 60% growth inhibition. […]
This is part of a sample that, as a whole, favours compounds with a hit. Of some 83,000 tested, about 20% had one in any assay. The source made the active and inactive calls. The calls were made as follows: active = growth percent below 10; inactive = the rest.
Pick one and only one: active, inactive

Please review the following examples before continuing.
N#Cc1c(-c2ccccc2)cc(-c2ccccc2)n(CCCCC(=O)NO)c1=O :: inactive
COCC(=O)Oc1cc(-c2ccc(C)cc2C)c(OC(=O)COC)c(-c2ccc(C)cc2C)c1 :: inactive
COC12C=C/C(=C(/C(=O)OCc3cncnc3)C(=O)CCCCCCCCC3(OC)C=C/C(=C(/C(=O)OCc4cncnc4)C(=O)CCCCCCCC1)O3)O2 :: active

# input Entry `CC(C)(C)c1ccc(S(=O)(=O)Oc2ccc(-c3sc4cc(OS(=O)(=O)c5ccc(C(C)(C)C)cc5)ccc4c3C(=O)c3ccc(OCCN4CCCCC4)cc3)cc2)cc1` : call = ?
# output inactive

# input What did the test return for CCOC(=O)C1=C(c2ccccc2)N=C2N(c3ccccc3)N=C(C(C)=O)N2C1c1ccc(F)cc1 (stereo unspecified) ?
# output inactive

Provenance of the data: PubChem BioAssay (NCI)
